biological target: Cholinesterase (Equus caballus); assay: Inhibition of equine serum BuChE using butyrylthiocholine chloride as substrate preincubated for 15 mins followed by substrate addition and measured after 4 mins by Ellman's method
Sequence (P81908 whole entry): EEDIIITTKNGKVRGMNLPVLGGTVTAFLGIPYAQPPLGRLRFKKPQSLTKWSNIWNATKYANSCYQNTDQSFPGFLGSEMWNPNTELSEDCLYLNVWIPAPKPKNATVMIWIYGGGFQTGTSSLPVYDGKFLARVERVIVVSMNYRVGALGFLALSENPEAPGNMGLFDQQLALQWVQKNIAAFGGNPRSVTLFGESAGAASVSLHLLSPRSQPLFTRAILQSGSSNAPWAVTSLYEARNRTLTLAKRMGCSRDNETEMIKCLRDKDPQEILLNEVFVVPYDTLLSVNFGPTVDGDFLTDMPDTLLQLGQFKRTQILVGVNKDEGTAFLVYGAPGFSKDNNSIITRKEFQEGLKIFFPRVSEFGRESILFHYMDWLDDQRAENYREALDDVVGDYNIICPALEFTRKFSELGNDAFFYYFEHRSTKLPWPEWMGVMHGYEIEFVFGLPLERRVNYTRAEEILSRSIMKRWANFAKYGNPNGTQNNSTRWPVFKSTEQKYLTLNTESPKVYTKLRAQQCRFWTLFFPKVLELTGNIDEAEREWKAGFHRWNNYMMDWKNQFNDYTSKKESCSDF
pIC50: −log10 of the molar value.
The molecules listed here are annotated with their pIC50.
ASSAY READOUT: pIC50

>>> numeric_result("COc1cc(C(=O)N/N=C/c2ccc(OC(=O)N(C)C)cc2)ccc1O")
4.66
>>> numeric_result("CN(C)C(=O)Oc1ccccc1/C=N/NC(=O)c1ccc(O)cc1")
6.74
>>> numeric_result("COc1ccc(C(=O)N/N=C/c2ccc(OC(=O)N(C)C)c(OC)c2)cc1OC")
5.68
>>> numeric_result("CN(C)C(=O)Oc1ccccc1/C=N/NC(=O)c1cccc(O)c1")
6.25
>>> numeric_result("COc1cc(C(=O)N/N=C/c2ccccc2OC(=O)N(C)C)ccc1O")
7.15
>>> numeric_result("COc1cc(C(=O)N/N=C/c2ccc(OC(=O)N(C)C)c(OC)c2)ccc1O")
5.00

Where do the numbers come from? From ChEMBL document CHEMBL4680346.
